- Test system: SK-Mel2 melanoma cells
- Assay type: cell-based
- condition.set: MTT assay, SK-Mel2 melanoma cells, 48 hour exposure; Table 4
Provide the recorded IC50 for the entries that follow.
// return numeric value only (unit: nM, not printed)

Req: What measured IC50 goes with Ac-AKFSTHWAYTLK-εPal (all D-) [SMOi2-17] ?
Resp: 0.4

Req: What measured IC50 goes with Ac-KFSTHWAYTLK- εPal (all D-) [SMOi2-20] ?
Resp: 0.3

Req: What measured IC50 goes with Ac-LAKFSTHWAYTLK-ε-Pal (all D-) [SMOi2-16] ?
Resp: 6

Req: What measured IC50 goes with Ac-YAWHTSFKALGTTYQPLSGKTSYK- εPal [SMOi2-5] ?
Resp: 1000

Req: What measured IC50 goes with Ac-LTYAWHTSFKALGTTYQPLSGKTSYK- ε-Pal [SMOi2-4] ?
Resp: 1000

From: patent US8546524B2
